The measured values listed here are drawn from patent US11236047B2.

Consider the following compounds and their measured inhibition at 0.03 µM readings.
# Measurement Target: MDM2-p53 interaction (Homo sapiens (Human), UniProt Q00987)
# Sequence (Q00987 whole entry): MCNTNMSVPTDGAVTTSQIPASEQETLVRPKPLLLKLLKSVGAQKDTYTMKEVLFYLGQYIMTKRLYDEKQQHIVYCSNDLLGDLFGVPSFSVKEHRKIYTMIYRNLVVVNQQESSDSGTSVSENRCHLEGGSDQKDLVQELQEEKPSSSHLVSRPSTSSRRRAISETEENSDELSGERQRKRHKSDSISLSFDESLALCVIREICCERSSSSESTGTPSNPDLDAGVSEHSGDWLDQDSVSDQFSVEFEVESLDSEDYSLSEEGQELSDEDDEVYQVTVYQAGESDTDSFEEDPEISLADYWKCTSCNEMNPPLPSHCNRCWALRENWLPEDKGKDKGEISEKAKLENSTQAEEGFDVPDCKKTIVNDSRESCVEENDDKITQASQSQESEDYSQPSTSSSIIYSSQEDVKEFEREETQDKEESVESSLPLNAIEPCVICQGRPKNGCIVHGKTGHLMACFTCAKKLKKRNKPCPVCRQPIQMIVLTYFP
# Reported Conditions: read-out: MDM2 % inhibition @0.030
Respond with the bare value in %.

Compound	Measurement Target	Unit Text	Assay Value
Cc1c[nH]c(C(C)(O)c2cc(F)c3c(c2)C(=O)N(Cc2ccc(Cl)cn2)[C@@]3(OCC2(O)CC2)c2ccc(Cl)cc2)n1 (mixture of isomers) [Example 332]	MDM2-p53 interaction (Homo sapiens (Human), UniProt Q00987)	%	60

Now take the following compound into account.
input: Record request: inhibition at 0.03 µM value, item CCC(O)(c1cc(F)c2c(c1)C(=O)N(Cc1ncc(Cl)cn1)[C@@]2(OCCO)c1ccc(Cl)cc1)[C@H]1CC[C@H](O)CC1 (single isomer, unassigned) [Example 519]
output: 35

###

Consider the following compounds and their measured inhibition at 10 µM readings.
# Test system: SN40R2 cells
# Assay Info: Protocol B: SN40R2 CellTiter-Glo luminescent cell viability assay
# Reported Conditions: read-out: SN40R2 % inhibition at 10
Respond with the bare value in %.

Compound	inhibition at 10 µM (%)
[2H]C([2H])(O)C1(C([2H])([2H])O[C@]2(c3ccc(Cl)cc3)c3c(F)cc(C(C)(O)CC)cc3C(=O)N2Cc2ncc(C#N)cn2)CC1 (single isomer, unassigned)	5
CCC(O)(c1cc(F)c2c(c1)C(=O)N(Cc1ncc(C#N)cn1)[C@@]2(OC[C@@H](C)O)c1ccc(Cl)cc1)[C@H]1CC[C@H](O)CC1 (stereo partly drawn)	5
CC[C@@](O)(c1cc(F)c2c(c1)C(=O)N(Cc1ccc(C)nc1C(=O)O)[C@@]2(OC)c1ccc(Cl)cc1)C1(F)CCOCC1	8
CCC(O)(CN1CCN(C)CC1)c1cc(F)c2c(c1)C(=O)N(Cc1ncc(Cl)cn1)[C@@]2(OCC1(C#N)CC1)c1ccc(Cl)cc1 (single isomer, unassigned)	44
CCC(O)(c1cc(F)c2c(c1)C(=O)N(Cc1ncc(C#N)cn1)[C@@]2(O[C@H]1CCOC1)c1ccc(Cl)cc1)c1ccn(C)n1 (stereo partly drawn)	0

input: Record request: inhibition at 10 µM value, item CCC(O)(c1cc(F)c2c(c1)C(=O)N(Cc1ncc(Cl)cn1)[C@@]2(O[C@H]1C[C@@H](O)C1)c1ccc(Cl)cc1)c1cn(C)cn1 (stereo partly drawn)
output: 46

###

# Measurement Target: MDM2-p53 interaction (Homo sapiens (Human), UniProt Q00987)
# Reported Conditions: at 0.10 μM
Returns one of condition met or condition not met; condition met when MDM2 % at stated concentration is >= 50 %@0.10.

Molecule	Group
Cn1cc(C(C)(O)c2cc(F)c3c(c2)C(=O)N(Cc2ncc(F)cc2F)[C@@]3(OCC2(O)CC2)c2ccc(Cl)cc2)cn1 (single isomer, unassigned) [Example 351]	condition not met

input: # check: MDM2 % at stated concentration of CO[C@]1(c2ccc(Cl)cc2)c2ccc(C(C)(O)CN3CCNC3=O)cc2C(=O)N1Cc1ccc(Cl)cn1 (single isomer, unassigned) [Example 158] is greater than or equal to 50 %@0.10
output: condition met

input: # check: MDM2 % at stated concentration of COc1ccc(CN2C(=O)c3cc(C(C)(O)c4cnn(C)c4)cc(F)c3[C@]2(OCC2(O)CC2)c2ccc(Cl)cc2)nc1 (stereo partly drawn) [Example 347] is greater than or equal to 50 %@0.10
output: condition met

input: # check: MDM2 % at stated concentration of CO[C@]1(c2ccc(Cl)cc2)c2ccc(C(C)(O)CN3CCOCC3=O)cc2C(=O)N1Cc1ccc(Cl)cn1 (single isomer, unassigned) [Example 328] is greater than or equal to 50 %@0.10
output: condition not met

###

Consider the following molecules and their measured MDM2 % at stated concentration readings.
# Measurement Target: MDM2-p53 interaction (Homo sapiens (Human), UniProt Q00987)
# Reported Conditions: at 0.30 μM
The reply should read as a number followed by its unit.

Molecule	Measurement Target	Assay Value
CO[C@]1(c2ccc(Cl)cc2)c2ccc(C(C)(O)CN3CC(=O)NC3=O)cc2C(=O)N1Cc1ccc(Cl)cn1 (single isomer, unassigned) [Example 330]	MDM2-p53 interaction (Homo sapiens (Human), UniProt Q00987)	36%@0.30
CO[C@]1(c2ccc(Cl)cc2)c2ccc(C(C)(O)CN3CCOCC3=O)cc2C(=O)N1Cc1ccc(Cl)cn1 (single isomer, unassigned)	MDM2-p53 interaction (Homo sapiens (Human), UniProt Q00987)	42%@0.30
CO[C@]1(c2ccc(Cl)cc2)c2ccc(C(C)(O)CN3CCNC3=O)cc2C(=O)N1Cc1ccc(Cl)cn1 (single isomer, unassigned)	MDM2-p53 interaction (Homo sapiens (Human), UniProt Q00987)	39%@0.30

input: Record request: MDM2 % at stated concentration value, item CO[C@]1(c2ccc(Cl)cc2)c2ccc(C(C)(O)CN3CC(=O)NC3=O)cc2C(=O)N1Cc1ccc(Cl)cn1 (single isomer, unassigned) [Example 329]
output: 61%@0.30

###

Consider the following compounds and their measured inhibition at 10 µM readings.
# Test system: SN40R2 cells
# Assay Info: Protocol B: SN40R2 CellTiter-Glo luminescent cell viability assay
# Reported Conditions: read-out: SN40R2 % inhibition at 10, Protocol B, SN40R2, at 10 μM
Respond with the bare value in %.

Worked examples, 4 compounds total:
Compound	inhibition at 10 µM (%)
CCC(O)(CN1CCNCC1)c1cc(F)c2c(c1)C(=O)N(Cc1ncc(Cl)cn1)[C@@]2(OCC1(C#N)CC1)c1ccc(Cl)cc1 (single isomer, unassigned)	46
CCC(O)(c1cc(F)c2c(c1)C(=O)N(Cc1ccc(Cl)cn1)[C@@]2(OC[C@@H](C)O)c1ccc(Cl)cc1)C1(F)CCNCC1 (single isomer, unassigned)	33
CCC(O)(c1cc(F)c2c(c1)C(=O)N(Cc1ncc(Cl)cn1)[C@@]2(OC)c1ccc(Cl)cc1)C1(F)CCN(C)CC1 (single isomer, unassigned)	72
CCC(O)(c1cc(F)c2c(c1)C(=O)N(Cc1ncc(Cl)cn1)[C@@]2(OC)c1ccc(Cl)cc1)[C@H]1CC[C@H](O)CC1 (some centres unmarked)	10

Now take the following compound into account.
input: Record request: inhibition at 10 µM value, item CCC(O)(c1cc(F)c2c(c1)C(=O)N(Cc1ncc(Cl)cn1)[C@@]2(O[C@H]1CCOC1)c1ccc(Cl)cc1)C1(F)CCN(C)CC1 (single isomer, unassigned)
output: 38

###

Consider the following compounds and their measured inhibition at 0.1 µM readings.
# Measurement Target: MDM2-p53 interaction (Homo sapiens (Human), UniProt Q00987)
# Reported Conditions: read-out: MDM2 % inhibition @0.10
Respond with the bare value in %.

Worked examples, 5 compounds total:
Compound	Measurement Target	Unit Text	inhibition at 0.1 µM
CCC(O)(c1cc(F)c2c(c1)C(=O)N(Cc1ccc(C#N)cn1)[C@@]2(OCCOC)c1ccc(Cl)cc1)c1cn(C)cn1 (stereo partly shown) [Example 429]	MDM2-p53 interaction (Homo sapiens (Human), UniProt Q00987)	%	65
CCCC(O)(c1cc(F)c2c(c1)C(=O)N(Cc1ccc(C#N)cn1)[C@@]2(O[C@H]1CCOC1)c1ccc(Cl)cc1)c1cn(C)cn1 (stereo partly shown) [Example 473]	MDM2-p53 interaction (Homo sapiens (Human), UniProt Q00987)	%	44
CCC(O)(c1cc(F)c2c(c1)C(=O)N(Cc1ccc(C#N)cn1)[C@@]2(OCCO)c1ccc(Cl)cc1)C1(F)CCOCC1 (stereo partly shown) [Example 500]	MDM2-p53 interaction (Homo sapiens (Human), UniProt Q00987)	%	21
CC[C@](O)(c1cc(F)c2c(c1)C(=O)N(Cc1ncc(C#N)cn1)[C@@]2(O[C@H]1CCOC1)c1ccc(Cl)cc1)C1(F)CCOCC1 [Example 508]	MDM2-p53 interaction (Homo sapiens (Human), UniProt Q00987)	%	17
CCC(O)(c1cc(F)c2c(c1)C(=O)N(Cc1ccc(C#N)cn1)[C@@]2(OC[C@@H](C)O)c1ccc(Cl)cc1)C1(F)CCOCC1 (stereo partly shown) [Example 498]	MDM2-p53 interaction (Homo sapiens (Human), UniProt Q00987)	%	32

input: Record request: inhibition at 0.1 µM value, item CCC(O)(c1cc(F)c2c(c1)C(=O)N(Cc1ncc(Cl)cn1)[C@@]2(OCC1(C(N)=O)CC1)c1ccc(Cl)cc1)c1cn(C)cn1 (stereo partly shown) [Example 485]
output: 58

input: Record request: inhibition at 0.1 µM value, item CCC(O)(c1cc(F)c2c(c1)C(=O)N(Cc1ncc(Cl)cc1O)[C@@]2(O[C@H]1C[C@@H](O)C1)c1ccc(Cl)cc1)c1cn(C)cn1 (stereo partly shown) [Example 488]
output: 56

###

# Measurement Target: MDM2-p53 interaction (Homo sapiens (Human))
# Reported Conditions: read-out: MDM2 % inhibition @0.0030
Consider the following compounds and their measured inhibition at 0.003 µM readings.
Respond with the bare value in %.

Worked examples, 3 compounds total:
Compound	inhibition at 0.003 µM / %
CCCC(O)(c1cc(F)c2c(c1)C(=O)N(Cc1ccc(C#N)cn1)[C@@]2(O[C@H]1CCOC1)c1ccc(Cl)cc1)c1cn(C)cn1 (single isomer, unassigned)	48
CO[C@]1(c2ccc(Cl)cc2)c2c(F)cc(C(C)(O)C3CCN(C(C)=O)CC3)cc2C(=O)N1Cc1ncc(Cl)cc1CO (single isomer, unassigned)	45
CN1CCC(C(C)(O)c2cc(F)c3c(c2)C(=O)N(Cc2ncc(Cl)cn2)[C@@]3(OCC2(F)COC2)c2ccc(Cl)cc2)CC1 (single isomer, unassigned)	53

Now take the following compound into account.
input: Look up inhibition at 0.003 µM with MDM2-p53 interaction (Homo sapiens (Human)) for this compound: `CC[C@@](O)(c1cc(F)c2c(c1)C(=O)N(Cc1ncc(C#N)cn1)[C@@]2(O[C@H]1CCOC1)c1ccc(Cl)cc1)C1(F)CCOCC1`
output: 65
